# System: C57BL/6 mice
# Assay Overview: Depression model test of anti-blepharoptosis caused by reserpine (akinesia, blepharoptosis, shell temperature)
# Assay type: in vivo
# Run Conditions: Experiment 1; 10 mg/kg intragastric 7 days; reserpine 4 mg/kg i.p.; abdomen, two hours after reserpine; ±SD
Observation Type: Change in the shell temperature (ΔT ° C.) (°C)
Give bare numbers, in °C.

Please review the following examples before continuing.
Please look up its Change in the shell temperature (ΔT ° C.): CC(C)CNC(=O)/C=C/c1cc(Cl)c2c(c1)OCO2 [Compound I-4] 1.51

Please look up its Change in the shell temperature (ΔT ° C.): CC(C)CNC(=O)/C=C/c1cc(I)c2c(c1)OCO2 [Compound I-3] 1.72

Further cases:
Please look up its Change in the shell temperature (ΔT ° C.): CC(C)CNC(=O)/C=C/c1cc2c(c(C(F)(F)F)c1)OCO2 [Compound I-5] 1.32

###

For each of the molecules below, state its Change in the shell temperature (ΔT ° C.).
# Tested on: C57BL/6 mice
# Assay Overview: Depression model test of anti-blepharoptosis caused by reserpine (akinesia, blepharoptosis, shell temperature)
# Assay type: in vivo
# Run Conditions: Experiment 1; 10 mg/kg intragastric 7 days; reserpine 4 mg/kg i.p.; abdomen, two hours after reserpine; ±SD
# Experimental: 120 male C57BL/6 mice were randomly selected to observe the number of their autonomic activity. The mice was placed into the YLS-1A multi-functional mice autonomic activity recorder, and after 1 min of adaption, the activity of the mice was counted within a time period from the end of 1st min to 4th min. […] III Shell temperature: two hours after intraperitoneal injection of reserpine, the shell temperature of the abdomen of the mice was measured. […]
Counter-ions that a name gives are not always drawn.
Answers are plain numbers, in °C.

Please review the following examples before continuing.
Please look up its Change in the shell temperature (ΔT ° C.): CC(C)CNC(=O)/C=C/c1cc2c(c([N+](=O)[O-])c1)OCO2 1.60

Please look up its Change in the shell temperature (ΔT ° C.): COc1cc(/C=C/C(=O)NCC(C)C)cc2c1OCO2 2.05

Give Change in the shell temperature (ΔT ° C.) for each listed item.
1. COc1cc(/C=C/C=C/C(=O)NCC(C)C)cc2c1OCO2
2. CNCCC(Oc1ccc(C(F)(F)F)cc1)c1ccccc1 (stereo not shown) [fluoxetine hydrochloride, Fluoxetine hydrochloride, reference compound]

1: 1.84; 2: 1.89

###

# Test system: C57BL/6 mice
# Assay Overview: Depression model test of anti-blepharoptosis caused by reserpine (akinesia, blepharoptosis, shell temperature)
# Format: in vivo
# Run Conditions: Experiment 2; 10 mg/kg intragastric 7 days; reserpine 4 mg/kg i.p.; score 0-4 one hour after reserpine; ±SD
Please note: Degree of eye-closure exactly at 2 is Not fulfilled. Only values below 2 get Fulfilled.

Reference set, count: 3
Determine whether this compound shows Degree of eye-closure lower than 2 (ties excluded): COc1cc(/C=C/C(=O)NCC(C)C)cc2c1OCO2 [Compound I-1] Not fulfilled

Determine whether this compound shows Degree of eye-closure lower than 2 (ties excluded): O=C(/C=C/c1cc2c(c(C(F)(F)F)c1)OCO2)N1CCCCC1 [Compound I-10] Fulfilled

Determine whether this compound shows Degree of eye-closure lower than 2 (ties excluded): O=C(c1cc2c(c(C(F)(F)F)c1)OCO2)N1CCCCC1 [Compound I-13] Fulfilled

Further cases:
Determine whether this compound shows Degree of eye-closure lower than 2 (ties excluded): CC(C)CNC(=O)c1cc2c(c(C(F)(F)F)c1)OCO2 [Compound I-12] Fulfilled

Determine whether this compound shows Degree of eye-closure lower than 2 (ties excluded): CN(C)C(=O)/C=C/c1cc2c(c(C(F)(F)F)c1)OCO2 [Compound I-8] Not fulfilled

Determine whether this compound shows Degree of eye-closure lower than 2 (ties excluded): CC(C)CNC(=O)CCc1cc2c(c(C(F)(F)F)c1)OCO2 [Compound I-11] Fulfilled

Determine whether this compound shows Degree of eye-closure lower than 2 (ties excluded): CCN(CC)C(=O)/C=C/c1cc2c(c(C(F)(F)F)c1)OCO2 [Compound I-9] Fulfilled

###

# Test system: C57BL/6 mice
# Assay Overview: Depression model test of anti-blepharoptosis caused by reserpine (akinesia, blepharoptosis, shell temperature)
# Format: in vivo
# Run Conditions: Mus musculus, po, 1 h, Experiment 2; 10 mg/kg intragastric 7 days; reserpine 4 mg/kg i.p.; one hour after reserpine, 7.5 cm circle, 15-second observation; read-out: “out-of-circle” ratio
Please note: responders at 10 mg/kg exactly at 50% is 0.0. Only values below 50% get 1.0.

Reference set, count: 5
Determine whether this compound shows responders at 10 mg/kg lower than 50% (ties excluded): CN(C)C(=O)/C=C/c1cc2c(c(C(F)(F)F)c1)OCO2 1.0

Determine whether this compound shows responders at 10 mg/kg lower than 50% (ties excluded): O=C(c1cc2c(c(C(F)(F)F)c1)OCO2)N1CCCCC1 0.0

Determine whether this compound shows responders at 10 mg/kg lower than 50% (ties excluded): CC(C)CNC(=O)c1cc2c(c(C(F)(F)F)c1)OCO2 0.0

Determine whether this compound shows responders at 10 mg/kg lower than 50% (ties excluded): O=C(/C=C/c1cc2c(c(C(F)(F)F)c1)OCO2)N1CCCCC1 1.0

Determine whether this compound shows responders at 10 mg/kg lower than 50% (ties excluded): CCN(CC)C(=O)/C=C/c1cc2c(c(C(F)(F)F)c1)OCO2 1.0

Then there is this compound:
Determine whether this compound shows responders at 10 mg/kg lower than 50% (ties excluded): COc1cc(/C=C/C(=O)NCC(C)C)cc2c1OCO2 1.0

###

For each of the compounds below, state its Change in the shell temperature (T ° C.).
# Test system: C57BL/6 mice
# Assay Overview: Depression model test of anti-blepharoptosis caused by reserpine (akinesia, blepharoptosis, shell temperature)
# Assay type: in vivo
# Run Conditions: Experiment 2; 10 mg/kg intragastric 7 days; reserpine 4 mg/kg i.p.; abdomen, two hours after reserpine; ±SD
Where a name gives a salt, the structure may show the parent alone.
Give bare numbers, in °C.

Please look up its Change in the shell temperature (T ° C.): CC(C)CNC(=O)CCc1cc2c(c(C(F)(F)F)c1)OCO2 30.20

Please look up its Change in the shell temperature (T ° C.): CC(C)CNC(=O)c1cc2c(c(C(F)(F)F)c1)OCO2 30.65

Please look up its Change in the shell temperature (T ° C.): O=C(c1cc2c(c(C(F)(F)F)c1)OCO2)N1CCCCC1 30.20

Please look up its Change in the shell temperature (T ° C.): CCN(CC)C(=O)/C=C/c1cc2c(c(C(F)(F)F)c1)OCO2 28.70

Give Change in the shell temperature (T ° C.) for each listed item.
1. O=C(/C=C/c1cc2c(c(C(F)(F)F)c1)OCO2)N1CCCCC1
2. CNCCC(Oc1ccc(C(F)(F)F)cc1)c1ccccc1 (centres unmarked) [fluoxetine hydrochloride, Fluoxetine hydrochloride, reference compound]
3. CN(C)C(=O)/C=C/c1cc2c(c(C(F)(F)F)c1)OCO2
4. COc1cc(/C=C/C(=O)NCC(C)C)cc2c1OCO2

[27.15, 29.20, 27.60, 27.80]

###

# Test system: C57BL/6 mice
# Assay Overview: Depression model test of anti-blepharoptosis caused by reserpine (akinesia, blepharoptosis, shell temperature)
# Format: in vivo
# Run Conditions: Mus musculus, po, 1 h, Experiment 1; 10 mg/kg intragastric 7 days; reserpine 4 mg/kg i.p.; one hour after reserpine, 7.5 cm circle, 15-second observation; read-out: “out-of-circle” ratio
Structures can show the parent of a compound that is named as a salt.
Please note: responders at 10 mg/kg exactly at 80% is rule not met. Only values below 80% get rule met.

Reference set, count: 3
Determine whether this compound shows responders at 10 mg/kg lower than 80% (ties excluded): COc1cc(/C=C/C(=O)NCC(C)C)cc2c1OCO2 [Compound I-1] rule met

Determine whether this compound shows responders at 10 mg/kg lower than 80% (ties excluded): CC(C)CNC(=O)/C=C/c1cc(I)c2c(c1)OCO2 [Compound I-3] rule not met

Determine whether this compound shows responders at 10 mg/kg lower than 80% (ties excluded): CC(C)CNC(=O)/C=C/c1cc(Cl)c2c(c1)OCO2 [Compound I-4] rule not met

Then there is this compound:
Determine whether this compound shows responders at 10 mg/kg lower than 80% (ties excluded): CNCCC(Oc1ccc(C(F)(F)F)cc1)c1ccccc1 (stereo not shown) [fluoxetine hydrochloride, Fluoxetine hydrochloride, reference compound] rule met

###

# Test system: C57BL/6 mice
# Assay Overview: Forced swimming experiment in mice
# Type: in vivo
# Run Conditions: 10 mg/kg intragastric once daily for 7 days; 30 min after last administration; end of 2nd min to 6th min
Structures can show the parent of a compound that is named as a salt.
For each of the compounds below, state its Immobility time in the forced swimming test in mice(s).
One number for each entry, in s.

Please review the following examples before continuing.
Please look up its Immobility time in the forced swimming test in mice(s): CC(C)CNC(=O)/C=C/c1cc2c(c(C(F)(F)F)c1)OCO2 78.58

Please look up its Immobility time in the forced swimming test in mice(s): CNCCC(Oc1ccc(C(F)(F)F)cc1)c1ccccc1 (stereo not shown) [fluoxetine hydrochloride, Fluoxetine hydrochloride, reference compound] 98.96

Please look up its Immobility time in the forced swimming test in mice(s): O=C(c1cc2c(c(C(F)(F)F)c1)OCO2)N1CCCCC1 76.00

Shifting focus to the compound that follows.
Please look up its Immobility time in the forced swimming test in mice(s): O=C(/C=C/c1cc2c(c(C(F)(F)F)c1)OCO2)N1CCCCC1 83.07
